These data points were gathered from the NTF2 design screens of Basanta et al. (2020).

The reader will find reported protease stability score values listed item by item below.
- measurementProtocol: protease stability score; higher = more stable; yeast display proteolysis, trypsin and chymotrypsin;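 also: log10 excess protease needed over predicted unfolded state with 0 meaning unfolded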
I only need the number, thanks.

Determine its reported protease stability score: DEDKHAHELAKKLQKVWEEGAEEKQQELVDEDDRKNIGEHTYNGEEQLRRDLDKLRKDADHVDMKLKQIRFQGDKARIDMVVSQTVNGKRNTDRFTVEARLNNGRLRIKQVTKN 0.813

Please list protease stability score recorded for the sequence DDEVLDDLVRLIKDNDWEQMANNADKDVKIQIGDKTWHGREQVEEVMRRMQETIDHLDIRSVTRHNGQVKVENRIEVNGQTIIYTVVFQAHNGRLKSMRVQATSHHAEDVMRQVIN 0.792

For the sequence DDDEARKALQWFSTGDPDKLKKNVDENAKVQIGDKEYQGRDQAATALVKLQKRVDHVEIKHVSIDGDDVVVDLVLNVDGHEVRFTNEFRVENGKFQDVHINVTNEEDEKILKRVLG , give its measured protease stability score value. 0.932

Supply measured protease stability score of EEEDAKRFKHLNERNDFTSLAKQVDEDATLRVGDKEIHGRERVTEFLEKAERAIDHVDIDSVDWSGDHVQFDAKYQVNGTTHHVIVRFRIHNGRIKYMQWDFTDDEVARRFLDNVQ in your reply. 0.573

Entry DHKEETKKKDEARRVLETNDPRKKLKLMDPNARANVGDKRYHGREELKRRADEERKRVDHAEVKRVEANGDHIIVDFVFVVNGKTKRNSLNINMHNGRVKEVNVESR needs its protease stability score filled in; supply it. -0.143

Consider the sequence DHEQLKNLKELLEAVQTGDEDQVKELMDPNAKFEYGNKSFHGRESMESYLKKLENEARVTVRSVTVRVSNGTISADVHLIFEVNGQPITVDAKFEAELHNGRVKHLYVRMPEETMKEIQG . State its measured protease stability score. -0.312

###

- measurementProtocol: protease stability score; higher = more stable; yeast display proteolysis, trypsin and chymotrypsin;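 also: log10 excess protease needed over predicted unfolded state with 0 meaning unfolded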
Recorded measurements of protease stability score, one per entry
Give your answer as a number; write no unit.

Guide cases for protease stability score, answers given:
1) DKEVIKQLKHFMKALEKGDPDKLVELADPEAKYEYGDRTYKGMSNVAEELVNTRREIRFQLTLQSYEVQGEKARVKAVYVKDRNGKPDNQVVVIEMEAHNGKIKSMQERSDQ 0.501
2) EDQVIRMVKELWKALRKNNPEKFKDLADKNARFEYGDKHVRGRENMQERMEQQVRDQEVDMRVERVEDRGDHVDVKFEKVVNHNGTPSSHSMTAVYVAENGRLKNVRVKETK -0.103

We now examine a further sequence.
Please list protease stability score recorded for the sequence DEDEDIRSWMKQFEEVVKTGDSKHAADMFDKNAKMQYGDKTYHGRDDVKSVLDHLLRRADHVRLELLDVKSNGESVHAVMLITFVVDGQTDSYHVELVFVVDNGRRNLHTATTK 0.872

###

This listing pairs sequences with measured protease stability score.
- measurementProtocol: protease stability score; higher = more stable; yeast display proteolysis, trypsin and chymotrypsin;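 also: log10 excess protease needed over predicted unfolded state with 0 meaning unfolded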
Output: the number by itself.

1) DSEKYLKDLNSNLLRILQTNDEKKLRDLVDKDVKITVGDKSYHGREEFAKVLRTLLNEHDKWRVHYQSIHQHNGKLRAVIDLKAENNGQTLSRNLDITAEERNGEVHVKHAQIG 1.08
2) DEHAEDLFRQLKEAEDTGDEDHFRRLVDPNAHFEIGNKHVHGREERATQMKQQKKQIRVEIKSMDYRVDGEKVEARVDATYNFNGRPDRMHIVIDIEFHNGRVTNARYRLDEEDLKRVEK 0.308
3) DDHNRAENFLKEVMRAMKNNDPQTLKELADPNVTVEVGDKEIHGQEEFHKWAETLNHNVDSLDIQFKEIRLRPGRAEAIVLITEDHNGRKDRKELNMVARVKGDDIHVVSMHQK 0.828
4) DEESREQQVHHMMEAIKTGDEDRARTLMDKDASLQVGDKVFQGRKEAAKAVSEIVRRVDRFRVDSVTVSGNQVDAKVQFEVNGRNMQATIRIQMHNGRIQHLVIEFRDPNQYREVKK 1.05
5) DEREHAEDYARQLDKAFRTGNPDEVMKQVDKDAHFQVGERRFHGEDEFKKWAEEVFERADHIHFRVREVTRQGDKIDVDMQVDMTTNGKRETDKVRALIDTQNGRQRVDEMTFK 0.651

Look up and state reported protease stability score for DEKKLKDKAETLVENFKTGNEEEFSRMADENATLVVGDKTLRGREDLQTFISEFKKTVDHVEVRHVTADNGRVTIDMVVDINGRRVRVHVVIKFKNGHIKDVRVDPRMKRAMDQ 0.905

Identify the reported protease stability score for the following entry. SEEELRKVVEKLLTYVIEGNPDDVKKYISPNVQVRYFDKTVQGRDEVMKFLRRAKKHGYRLQAKHVQLEGDRATTELDYQAGDQEATVRVEATVNGGRLEKLEVRDSPKVKKVLKDG 1.56

Recall and state the measured protease stability score for DQDAIRRLDEALRAEETGNEKQLKDLFDPNVEFVIGDDEYHGMDSYAKDVRRRKQNMRDHIEHVDMHDNGSQIHIRYRQVANINGTPVKYEITATAEVHNGRFKRMEYRIDEDEQRKLDS . 0.026

Read the entry DDDQRRKAAQRAHELVKTGDPEEIEKLADKHARIQVGDKRVQGREEAKKIMKEFRERVDHIRISDVQVDGDKIKVDVVVVHNGTKKHVVFVFRVHNGKATEISLEDK and write its reported protease stability score. 0.027

Indicate its recorded protease stability score; the sequence in question is DREEAKKIRKNWETNNWDHFAHQADENVRVRVGDKKYHGHHKLLEIMHQIEKRIDHARFDHIDLDGEKLTVDFQMVVNGKKVRYVMFIKVSNGRIKEVNIQFTSEEEERRAQEALR 0.732

Return value of protease stability score for input DRQASEVARKILQAIRKGDPETMKELVDPNVNVTVGEKTFKGREEAARHFVERQKQIRVQVDSMEVSAHNGKVDARMKVLYNHNGRPVKMDVVVHFDMKNGKARRAEYRVDEEQRRRLET , no commentary. 0.082
